System: S1B1-20
TEST DETAILS: In vitro concentration required to inhibit tumor activity on subclone of human colon carcinoma cells (S1-B1-20) resistant to bisantrene
Format: functional, cell-based
MEASUREMENT CONDITIONS: Homo sapiens, S1B1-20
pIC50: −log10 of the molar value.
Please mark 1.0 if the recorded pIC50 is equal to or greater than 6, and 0.0 if it falls below.

COMPOUND | ASSIGNED CATEGORY
COc1ccc(C(C#N)(CCCCCCCCCCCN2CCc3cc(OC)c(OC)cc3C2)Sc2ccc(C)cc2)cc1OC (centres undefined) | 0.0
COc1cc2c(cc1OC)CN(CCCCCCC(Sc1ccc(C)cc1)c1ccc(F)cc1)CC2 (centres undefined) | 0.0
COc1ccc(C(C#N)(CCCCCN2Cc3cc(Cl)c(Cl)cc3C2)Sc2ccc(C)cc2)cc1OC (centres undefined) | 0.0
COc1ccc(C(C#N)(CCCCCCN2CCc3cc(OC)c(OC)cc3C2)Sc2ccc(C)cc2)cc1OC (centres undefined) | 1.0
COc1ccc(C(CCCCCN2CCc3cc(OC)c(OC)cc3C2)Sc2ccc(C)cc2)cc1OC (centres undefined) | 1.0
COc1ccc2c(c1)CCN(CCCCCC(Sc1ccc(C)cc1)c1ccc(OC)c(OC)c1)C2 (centres undefined) | 0.0

All figures here come from ChEMBL document CHEMBL1132241.
